Recorded values, source patent US9290507B2.

Tested on: B-Raf (V600E)-kinase (Homo sapiens (Human), UniProt P15056, V600E)
Sequence (P15056 whole entry V600E): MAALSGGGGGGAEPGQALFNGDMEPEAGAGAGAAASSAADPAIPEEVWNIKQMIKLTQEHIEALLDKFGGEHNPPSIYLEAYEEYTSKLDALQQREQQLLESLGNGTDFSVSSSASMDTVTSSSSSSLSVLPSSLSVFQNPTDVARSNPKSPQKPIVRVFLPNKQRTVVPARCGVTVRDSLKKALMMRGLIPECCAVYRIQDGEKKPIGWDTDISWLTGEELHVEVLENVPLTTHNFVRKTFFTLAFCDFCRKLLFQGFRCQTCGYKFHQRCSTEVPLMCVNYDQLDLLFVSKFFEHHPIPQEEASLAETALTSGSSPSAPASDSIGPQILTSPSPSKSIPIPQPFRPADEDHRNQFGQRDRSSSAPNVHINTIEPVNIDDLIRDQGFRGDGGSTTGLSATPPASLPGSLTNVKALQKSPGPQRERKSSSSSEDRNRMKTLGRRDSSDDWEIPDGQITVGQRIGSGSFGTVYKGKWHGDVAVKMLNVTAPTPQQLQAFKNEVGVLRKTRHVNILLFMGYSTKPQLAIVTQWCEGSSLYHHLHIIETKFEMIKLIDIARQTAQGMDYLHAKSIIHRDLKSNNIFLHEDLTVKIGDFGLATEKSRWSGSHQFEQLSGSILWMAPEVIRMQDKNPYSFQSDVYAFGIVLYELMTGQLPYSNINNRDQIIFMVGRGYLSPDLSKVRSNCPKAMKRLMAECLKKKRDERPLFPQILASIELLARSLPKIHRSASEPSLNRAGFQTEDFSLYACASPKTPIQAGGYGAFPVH
Assay method text: Kinase test B-Raf (V600E)
Details: 1 h preincubation, 250 μM ATP
Entries and their IC50

{"columns": ["Compound", "IC50 (nM)"],
 "data": [
  ["Cc1ccc(C(=O)Nc2cc(C(C)(C)C)on2)cc1-n1cc(-c2cncc(N3CCC(N4CCN(C)CC4)C3)c2)nn1 (stereo not shown)", 6],
  ["Cc1ccc(C(=O)Nc2cc(C(F)(F)F)ccn2)cc1-n1cc(-c2cncc(N3CCOCC3)c2)nn1", 12],
  ["CCOCCN1CCN(c2cncc(-c3cn(-c4cc(C(=O)Nc5cc(C(C)(C)C)on5)ccc4C)nn3)c2)CC1", 29],
  ["Cc1ccc(C(=O)Nc2cc(C(C)(C)C)on2)cc1-n1cc(-c2cncc(NC3CCOC3)c2)nn1 (stereo not shown)", 6]
]}
